assay: Inhibition of CEM cell growth (cytostatic activity)
Assay type: cell-based
measurement_conditions: human, CEM cells, inhibition of cell proliferation; Table 2; read-out: CC50 CEM
Method: Cytostatic and antimetabolic effect of acyclic nucleoside phosphonates in vitro. The assays to examine the inhibition of CEM cell growth by the test compounds have been described previously (Balzarini et al., AIDS 5:21-28, 1991). The 50% cytostatic concentration (CC50) was defined as the concentration of compound that reduced the number of living cells by 50% . […] The CC50 was then calculated from the number of living cells counted under a microscope by the trypan blue exclusion method.
metric: CC50 (µg/mL)
Your answer should be a plain number; it is taken to be in µg/mL.

Examples with their reported CC50 follow.
>>> assay_value("Nc1nc(O)cc(OCCOCP(=O)(O)O)n1 [Compound 4]")
2.5
>>> assay_value("Nc1cc(SCCOCP(=O)(O)O)nc(N)n1 [Compound 2]")
64

Field: next molecule
Qu. Determine its reported CC50: Nc1cc(OCCOCP(=O)(O)O)nc(N)n1 [Compound 1]
Ans. 11

---

assay: Cell viability in monocyte/macrophages (M/M)
Type: cell-based, human
measurement_conditions: human; reduction of cell viability; Table 2; read-out: CC50 M/M
metric: CC50

Qu. Report measured CC50; entry is Nc1ncnc2c1ncn2CCOCP(=O)(O)O [PMEA, 9-[(2-phosphono-methoxy)ethyl]adenine, reference compound]
Ans. > 100 µg/mL

---

Test system: MSV
assay: MSV-induced transformation of murine embryo fibroblast C3H/3T3 cell cultures
Type: cell-based
measurement_conditions: Mus musculus; MSV-induced C3H cell transformation; Table 2; read-out: EC50 MSV (C3H)
metric: EC50 (µg/mL)
Number only, in µg/mL; omit the unit.

>>> assay_value("Nc1ncnc2c1ncn2CCOCP(=O)(O)O [PMEA, 9-[(2-phosphono-methoxy)ethyl]adenine, reference compound]")
0.62

Qu. Fill in reported EC50 for this entry: Nc1nc(O)cc(OCCOCP(=O)(O)O)n1 [Compound 4]
Ans. 0.08

Qu. Dear colleague, please send me the reported EC50 for Nc1cc(SCCOCP(=O)(O)O)nc(N)n1 [Compound 2] when you can.
Ans. 1.7

Qu. Output EC50 of Nc1cc(OCCOCP(=O)(O)O)nc(N)n1 [Compound 1]
Ans. 0.16

---

Test system: VZV TK − 07/1
assay: Antiviral activity, VZV TK- 07/1, Table 1a
Format: cell-based
measurement_conditions: Human alphaherpesvirus 3, read-out: Antiviral Activity EC50 VZV TK − 07/1
metric: EC50

>>> assay_value("Nc1cc(OCCOCP(=O)(O)O)ncn1 [Compound H-3418]")
"> 50 µg/mL"
>>> assay_value("Nc1nc(OCCOCP(=O)(O)O)cc(OCCOCP(=O)(O)O)n1 [Compound H-3444]")
"> 50 µg/mL"
>>> assay_value("Nc1nc(NC2CC2)cc(OCCOCP(=O)(O)O)n1 [Compound H-3435]")
"> 50 µg/mL"
>>> assay_value("Nc1cc(SCCOCP(=O)(O)O)nc(N)n1 [Compound H-3408]")
"20 µg/mL"
>>> assay_value("Nc1nc(OCCOCP(=O)(O)O)cc(=O)n1CCOCP(=O)(O)O [Compound H-3445]")
"> 50 µg/mL"
>>> assay_value("Nc1cc(OCCOCP(=O)(O)O)nc(N)n1 [Compound H-3404]")
"2.5 µg/mL"

Qu. Provide only the value of recorded EC50 for Cc1cc(OCCOCP(=O)(O)O)nc(N)n1 [Compound H-3453]
Ans. > 50 µg/mL

Qu. Answer with reported EC50 of CN(C)c1cc(OCCOCP(=O)(O)O)nc(N)n1 [Compound H-3427]
Ans. > 50 µg/mL
